B1: KAT8 regulatory NSL complex subunit 2, residues 28 to 91; numbered along this chain, Q9H9L4 (parent)
chain: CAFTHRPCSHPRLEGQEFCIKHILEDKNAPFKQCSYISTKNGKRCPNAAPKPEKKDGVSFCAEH

Variants of: B1
protocol summary: abundance fitness (aPCA) (normalised: wild type 0, dead -1); higher = more abundant; growth selection in yeast, the domain comes from the species named
measurement setup: Homo sapiens
recorded endpoint: abundance fitness
Response field accepts a number only; no unit should be typed.

Solved cases below.
sequence_variant=N41R recorded_endpoint="abundance fitness" endpoint_value=-0.06
sequence_variant=F31S recorded_endpoint="abundance fitness" endpoint_value=-0.179
sequence_variant=K27Y recorded_endpoint="abundance fitness" endpoint_value=-0.202
sequence_variant=I23M recorded_endpoint="abundance fitness" endpoint_value=-0.204
sequence_variant=H5T recorded_endpoint="abundance fitness" endpoint_value=0.034

The record that follows has no abundance fitness shown yet.
[ask] Param item = L24C ; retrieve measured abundance fitness.
[reply] -0.129
